assay method text: Compound solubility in water
Type: physicochemical
Classification field. Basis: solubility. Definitions: bucket 1 (below 2 µg/mL), bucket 2 (2 µg/mL to below 10 µg/mL), bucket 3 (10 µg/mL or more)

>>> class_label("Cc1cc(C)n2cnc(C(=O)NC(C)(C)C3CC3)c2n1 [III-8]")
"bucket 3"
>>> class_label("Cc1cc(-c2cccnc2)nc2c(C(=O)NC(c3ccc(F)cc3)C(F)(F)F)ncn12 (stereo not drawn) [III-48]")
"bucket 2"
>>> class_label("CCc1cc(-c2cccc(F)c2)nc2c(C(=O)N[C@@H](C)C3CC3)ncn12 [III-113]")
"bucket 1"
>>> class_label("Cc1cc(-c2cccc3ncoc23)nc2c(C(=O)NC(C3CC3)C(F)(F)F)ncn12 (stereo not drawn) [III-160]")
"bucket 2"
>>> class_label("Cc1cc(-c2cscn2)nc2c(C(=O)NC(C)(C)C3CC3)ncn12 [III-62]")
"bucket 2"
>>> class_label("COc1cc(-c2cc(C)n3cnc(C(=O)NC(C4CC4)C4CC4)c3n2)ccc1Cl [III-175]")
"bucket 1"
>>> class_label("Cc1cc(-c2ccncc2)nc2c(C(=O)NC(CC(C)C)C3CC3)ncn12 (stereo not drawn) [III-28]")
"bucket 3"
>>> class_label("Cc1cc(N2CCC(F)(F)C2)nc2c(C(=O)NC(C3CC3)C(F)(F)F)ncn12 (stereo not drawn) [III-139]")
"bucket 1"
>>> class_label("Cc1cc(N2CCCC(F)(F)C2)nc2c(C(=O)NC(C)(C)C3CC3)ncn12 [III-92]")
"bucket 2"
